Cited source for all entries: the supplement of paper PMC6757056

B1: library; a variant is named by its letters at N, in order (parent)
chain: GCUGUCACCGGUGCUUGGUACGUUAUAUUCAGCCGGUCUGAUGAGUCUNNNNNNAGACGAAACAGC

- Variants of: B1
- Assay Summary: normalized RNA/DNA level with ligand (relative to sTRSVctl = 100) (log10 (% of sTRSVctl)); HEK293T overexpressing SLC46A1; ligand concentration (+) RNA-Seq: 6 mM; higher = less ribozyme self-cleavage, higher mRNA level
- Assay Conditions: with (6R,S)-folinic acid; ligand present: yes
Readout Kind: normalized RNA/DNA level with ligand (log10)
Enter a number only.

The following variants have reported results that may help.
CUCAAG ... 2.01
GUUACA ... 2.01
CUGAUC ... 2.04
UAGGUU ... 2
CGUUUG ... 1.99

Data request: Given the variant `AAAAAU` , what is its reported normalized RNA/DNA level with ligand (log10)?
Data returned: 1.99

Data request: Form field: reported normalized RNA/DNA level with ligand (log10) of `GGAGCU`
Data returned: 2.04

Data request: What value of normalized RNA/DNA level with ligand (log10) has been recorded for this entry: `CUGACC`
Data returned: 2.01

Data request: Could you tell me which normalized RNA/DNA level with ligand (log10) is on file for `GGAGGC` ?
Data returned: 2.01

Data request: Value lookup for normalized RNA/DNA level with ligand (log10); key = `GAAAGG`
Data returned: 2
